Numbers sourced from the EternaBench riboswitch data.

Measured apparent Kd by item
- System: MS2 coat protein
- ASSAY INFO: apparent Kd, MS2 coat protein; higher = weaker binding; RNA-MaP array
- APPLIED CONDITIONS: designed as: ON switch for flavin mononucleotide; no ligand

- BIOPOLYMER SEQUENCE: "CCAACCUGUCGAGCACCAUAACAUGAGGAUCACCCAUGUAUCAGAAGGUGUGUGAGUAAGGAAGACAAGGAUAUGACUCGACGC"
  MEASURED TARGET: "MS2 coat protein"
  apparent Kd [nM]: 16.9
- BIOPOLYMER SEQUENCE: "CGCAGCAUCUAGAAGGGCGAAUCAACAAUACAACUAGUGAACAUGAGGAUCACCCAUGUAAUGACGCAGGAUAUAGUAGCAAAG"
  MEASURED TARGET: "MS2 coat protein"
  apparent Kd [nM]: 26.5
- BIOPOLYMER SEQUENCE: "GUAAGCAAGCAAGGAUAUGAUAUAAAUUCGAUAUCAGAAGGUGCCUUUCCUAGUCGAAUACAUGAGGAUCACCCAUGUCAGCAA"
  MEASURED TARGET: "MS2 coat protein"
  apparent Kd [nM]: 25.6
- BIOPOLYMER SEQUENCE: "UCUUUCUUUAAAGAACACAUGAGGAUCACCCAUGUUCAAGGGCAGGAUAUGAGUAUCUGUUCGGAUCAGAAGGGCCCAACAGGU"
  MEASURED TARGET: "MS2 coat protein"
  apparent Kd [nM]: 36
- BIOPOLYMER SEQUENCE: "ACAUGAGGAUCACCCAUGUAAUAUAUAAAGACUAAAACUAGUUAGGAUAUAUCACAUGUACAGGGAUAGAAGGAACUAGUCUGC"
  MEASURED TARGET: "MS2 coat protein"
  apparent Kd [nM]: 7.15
- BIOPOLYMER SEQUENCE: "GAGAGGCGCUAGAAGGCACGCGUUCGGAUUGAGUGAGGAUAUAGUCCUCUGCCACAUGAGGAUCACCCAUGUAGUUUGAUAGAG"
  MEASURED TARGET: "MS2 coat protein"
  apparent Kd [nM]: 6.28
- BIOPOLYMER SEQUENCE: "GCCUAGGGUCAAGGAUAUCACCCAGUGGUCCGUACAUGAGGAUCACCCAUGUCACCGGGAACGGGUGAGAAGGUGAAAAGUCGA"
  MEASURED TARGET: "MS2 coat protein"
  apparent Kd [nM]: 13.9

====

Each entry below lists one item and its recorded apparent Kd value.
- Tested on: MS2 coat protein
- ASSAY INFO: apparent Kd, MS2 coat protein; higher = weaker binding; RNA-MaP array; FMN 200 µM where present
- APPLIED CONDITIONS: designed as: ON switch for flavin mononucleotide; no ligand

- BIOPOLYMER SEQUENCE: "GGGUACAUCGGAGGAUAUCAUGUAACUACAUGAGGAUCACCCAUGUCGAUGGAGACAUCGGAGAUUGAGAAGGCCGAUGUACCG"
  MEASURED TARGET: "MS2 coat protein"
  apparent Kd: "261 nM"
- BIOPOLYMER SEQUENCE: "UAGCGCUGUCGAGAGGAUAUGCGGUGAUGGACAUGAGGAUCACCCAUGUUAGCGAUAGCAUUACGGUAGAAGGCUCUACAGCUGC"
  MEASURED TARGET: "MS2 coat protein"
  apparent Kd: "27.6 nM"
- BIOPOLYMER SEQUENCE: "CACGGCGUAUCAGGAUAUGUGGGUGUCUGGACAUGAGGAUCACCCAUGUAAACAGUAUUAGCCGUGCAGAAGGGAUCCGCUGUA"
  MEASURED TARGET: "MS2 coat protein"
  apparent Kd: "39 nM"
- BIOPOLYMER SEQUENCE: "GUGCGAGCCACAGGAUAUCUACAGAUUUAUUGUAGAGAAGGGUGACCUCGUGCACCACAUGAGGAUCACCCAUGUAACUAGGCG"
  MEASURED TARGET: "MS2 coat protein"
  apparent Kd: "30 nM"
- BIOPOLYMER SEQUENCE: "UUGGAGUACGUAGGAUAUGUAGGAUAUUCCUACAUGAGGAUCACCCAUGUUUACAUGGAAGAAGGACAGAAGGACGUGCUCCAU"
  MEASURED TARGET: "MS2 coat protein"
  apparent Kd: "1120 nM"
- BIOPOLYMER SEQUENCE: "ACAUGAGGAUCACCCAUGUAGAGUGAAGAAGGUAGAUACUUAUGACUCUCCCAUGUACAUAGGACUGAGGAUAUUCUAAUAAUU"
  MEASURED TARGET: "MS2 coat protein"
  apparent Kd: "23.4 nM"
- BIOPOLYMER SEQUENCE: "GGAGACCUCGCAGGAUAUGCUGGACUUUGUCCAGCAGAAGGGUGAAAACAUGAGGAUCACCCAUGUAUGGUCUCCAAAUUUAAU"
  MEASURED TARGET: "MS2 coat protein"
  apparent Kd: "1060 nM"
